- Tested on: MS2 coat protein
- METHOD_NOTES: apparent KD of MS2 coat protein; designed switch direction (-1 OFF switch, 1 ON switch): -1; higher = weaker reporter binding
- CONDITION_PARAMETERS: input ligand: microRNA oligo, concentration not stated
Would you mind telling me the reported apparent KD of MS2 coat protein of each entry?
Answers are plain numbers, in nM.

Below, 5 sequences whose answers are already recorded.
- MONOMER_SEQUENCE: "AAGAAGGCAGGAUAUACAAAAUAAAAGAAAAGAAAGAAAGAACAUGAGGAUCACCCAUGUAGAAGGGUCAAGAA [Sankhenre Sewadjtu] (Eterna round: R96, puzzle: Exclusion 2)"
  UNIT_LABEL: "nM"
  apparent KD of MS2 coat protein: 46.3
- MONOMER_SEQUENCE: "AUAAGAAAGGCAGGAUAUUGUGCACCCUAGUGACAAGAAGGGCCAGGGUGUGCGCUCCACAUGAGGAUCACCCAUGUUAGAAAG [Berimate] (Eterna round: R96, puzzle: Exclusion NG 1)"
  UNIT_LABEL: "nM"
  apparent KD of MS2 coat protein: 27
- MONOMER_SEQUENCE: "ACGAUGACAGAAAGAUGUCAAAAGACAUGAGGAUCACCCAUGUAGGAUAUGGCUACGAAAAGUAGUCAGAAGGACAUGUCAUCA [Omei Exc(NG) 3 Av1] (Eterna round: R96, puzzle: Exclusion NG 3)"
  UNIT_LABEL: "nM"
  apparent KD of MS2 coat protein: 10.6
- MONOMER_SEQUENCE: "UCACGGGACUGAGGAUAUACAUCAACCAUGGUUGUAGAAGGCAGAAGGUUGGAUCAUACACUAAACAUGAGGAUCACCCAUGUU [JR_ExcNG1_Sub029] (Eterna round: R96, puzzle: Exclusion NG 1)"
  UNIT_LABEL: "nM"
  apparent KD of MS2 coat protein: 16.8
- MONOMER_SEQUENCE: "GUGGGUUACAUGAGGAUCACCCAUGUAUAGUGGGAAGAGAUAUAGGAUAUAAUGUAAAAAUUAUAUUAGAAGGAUAGAGACUAG [AK ExNG3-1.3] (Eterna round: R96, puzzle: Exclusion NG 3)"
  UNIT_LABEL: "nM"
  apparent KD of MS2 coat protein: 135

Could I get apparent KD of MS2 coat protein for every one of these entries?
1. UAUUGCGAGUGAGGAUAUGACAUGAGGAUCACCCAUGUAAAGGGAGUUGGCUAUAUAGCAAGUUUUCAGAAGGCACUACUGUAU [JR_ExcNG2_Sub007] (Eterna round: R96, puzzle: Exclusion NG 2)
2. GCACGGAUGGUAGGAUAUCUGUGCGAUUAGCUCAGAGAAGGACCACAUGAGGAUCACCCAUGUACCUCAAUUAACCUUCCGUGC [Eli exng1 - 021] (Eterna round: R96, puzzle: Exclusion NG 1)
3. AUUAUAUAGGAAGGAUAUAGAAUAUUAUUUUAACAUGAGGAUCACCCAUGUAACCUUAUGUGUAGCUAGAAGGUCCAUUUAUUA [Title] (Eterna round: R96, puzzle: Exclusion NG 2)

Response:
1. 48.8
2. 21
3. 95.6
